Quick reference for sensor-assay potency score (higher = more potent) among some sequences
Biological target: EPDR1
Test: pooled miR-30 sensor sort-seq; sequence = guide strand
Details: shRNA

# annotated cases, reported sensor-assay potency score (higher = more potent) shown
TAGAGGAATAATTACTTCCTAT	-0.811
TCAATCTGAAACATCACTCCAT	1.13
TTAGGAGACAATAGTCTCCTGA	-0.95
TACGAGGGAACTCTAGTCCTGG	-0.607
TAGGATCTAGCTGACTTTCTGT	0.667

Could you now consider this next sequence?
Sure, the documented sensor-assay potency score (higher = more potent) for TAGCATTCACATCTTGACTAGT is 0.0481

---

Molecular target: KDM2B
Experiment: pooled miR-30 sensor sort-seq; sequence = guide strand
Conditions: shRNA
measured.metric: sensor-assay potency score (higher = more potent)
Please reply with the number alone, leaving off any unit.

# annotated cases, reported sensor-assay potency score (higher = more potent) shown
TATCGCTGGCGGTCAATCGGGC	-0.118
TTGGAGATATTGGTCCAGCTGA	-0.912
TTCGAGTGCTCATCCGACCTGC	0.201
TTGTCCATCTGACCTGGCCTGT	-0.884
TTTGGCATCGTTCCACACGGTC	-1.07

Sure, the documented sensor-assay potency score (higher = more potent) for TTCTTTGCCAGGTTTGAGCCGC is -0.547

Sure, the documented sensor-assay potency score (higher = more potent) for TTCTTGGAGATATTGGTCCAGC is -0.935

---

Biological target: AK1
Assay: pooled miR-30 sensor sort-seq; sequence = guide strand
Conditions: shRNA
measured.metric: sensor-assay potency score (higher = more potent)
Please reply with the number alone, leaving off any unit.

# annotated cases, reported sensor-assay potency score (higher = more potent) shown
TTCTCCTTGCTGCACCTCCCGC	-1.57
TCGCTCAAACTCTTCTCCTTGC	-0.418
TGCGTCCACATACAGCAGCAGT	-1.67

Sure, the documented sensor-assay potency score (higher = more potent) for TTGATGGTCTCCTCATTGTCGT is -0.675

---

Target: MAGED2
Assay: pooled miR-30 sensor sort-seq; sequence = guide strand
Settings: shRNA
Label fulfilled when sensor-assay potency score (higher = more potent) is at or above -0.2; otherwise label not fulfilled.

Check out these entries, answers already filled in.
TTGGGTGAGTCCTTAGTCGTTC	fulfilled
AACAGAGTCTGCATCATCGAGC	not fulfilled
TTTGATGATGTCCTTCAGCATG	not fulfilled
TTTAGCTTCTGCTCCCGCCTGG	fulfilled
TTTCTTGGCTTTGACCTTGGGC	fulfilled

Please tell me: is the sequence TTTTGAGACCTTCACATCCTCT at or over -0.2 in terms of sensor-assay potency score (higher = more potent)?
not fulfilled

Please tell me: is the sequence TTCTTTTGTACCTTGCAGGCAA at or over -0.2 in terms of sensor-assay potency score (higher = more potent)?
fulfilled

---

Target: FNTB
Assay: pooled miR-30 sensor sort-seq; sequence = guide strand
Conditions: shRNA
Quick reference for sensor-assay potency score (higher = more potent) among some sequences
Please reply with the number alone, leaving off any unit.

# annotated cases, reported sensor-assay potency score (higher = more potent) shown
TTCTGTAGAAAGTATGTAGTGG	0.598
ATCTGTAGCCACTATCTGGGGG	-0.8
AAGAACTGAAGACCTCTTGGAT	-0.153

Reading of sensor-assay potency score (higher = more potent) for TTTTCTTCTACTTTTGCCTGTT with FNTB: 0.0828

Reading of sensor-assay potency score (higher = more potent) for TCATGCAACATGGCTCCGCTGC with FNTB: -1.29

Reading of sensor-assay potency score (higher = more potent) for TATTGAAACGTATAAACCTTGT with FNTB: -0.892

---

Target: MEN1
Experiment: pooled miR-30 sensor sort-seq; sequence = guide strand
Conditions: shRNA
Quick reference for sensor-assay potency score (higher = more potent) among some sequences
Please reply with the number alone, leaving off any unit.

TAGTAGGTCTTGGCTGAGGCAA	-1.23
TTCAGGTACAGCCAGCTCCGCT	-1.42
TTCTTCATCTGCACTTGCGACT	-0.844
TTGTGGTAGAGGGTGAGTGGGT	-0.985
TAGAGGGACAGGTCGACGGCGC	-0.785
TATGACATCGGAGACCTTCTTC	0.751

Sure, the documented sensor-assay potency score (higher = more potent) for TTCTTCACCAGCTCACGGCTGG is -0.0281

---

Target: CHSY1
Test: pooled miR-30 sensor sort-seq; sequence = guide strand
Conditions: shRNA
Label yes (1) when sensor-assay potency score (higher = more potent) is at or above -0.4; otherwise label no (0).

Please tell me: is the sequence TTGTCTTGGACCATGTTCTGTA at or over -0.4 in terms of sensor-assay potency score (higher = more potent)?
yes (1)

---

Target: EHMT2
Experiment: pooled miR-30 sensor sort-seq; sequence = guide strand
Details: shRNA
measured.metric: sensor-assay potency score (higher = more potent)
Please reply with the number alone, leaving off any unit.

ATCCTTGTTGTCTAAGTCGAAG	-1.84

Sure, the documented sensor-assay potency score (higher = more potent) for TTCTTCTTGGCCTTGCGCCGGC is -0.437

Sure, the documented sensor-assay potency score (higher = more potent) for TTGAGCTTCAGAAGCATCCTCC is 0.398

Sure, the documented sensor-assay potency score (higher = more potent) for TTACACTCGAAAATCAGCGGAG is -0.173

Sure, the documented sensor-assay potency score (higher = more potent) for TTAGTTGTTCAGTTAGAGCTTC is 0.313

Sure, the documented sensor-assay potency score (higher = more potent) for TTCATGGTGGACGTCTCGCAGT is -1.22

Sure, the documented sensor-assay potency score (higher = more potent) for TTGAGTTGAAGCGCAAACCACA is -1.4

---

Target: C4orf27
Experiment: pooled miR-30 sensor sort-seq; sequence = guide strand
Settings: shRNA
measured.metric: sensor-assay potency score (higher = more potent)
Please reply with the number alone, leaving off any unit.

# annotated cases, reported sensor-assay potency score (higher = more potent) shown
TAATGGTCTGGAACTCAGGAGG	-0.721
TATGTTCTCTTGACTTCTGTTT	-0.298
TATTTCTCTAAGTTTTTTCGTC	-0.0754

Sure, the documented sensor-assay potency score (higher = more potent) for TTATACAATTTTTCTTTGCTTC is -0.21

Sure, the documented sensor-assay potency score (higher = more potent) for TTCTTTTCGAAGGTCACTGGAG is -0.538

Sure, the documented sensor-assay potency score (higher = more potent) for TTAGTCTCTCCTCATCACTTGC is -0.932

Sure, the documented sensor-assay potency score (higher = more potent) for TTTATCTACTGGAACAACCAAG is -0.789

Sure, the documented sensor-assay potency score (higher = more potent) for TATAATGATTTTCTACTTCTTT is -0.484

Sure, the documented sensor-assay potency score (higher = more potent) for TTCATCATTAGCAAACTGCACA is -0.513

Sure, the documented sensor-assay potency score (higher = more potent) for TTCTCTTGAGGTCAGCATCTGT is -0.164

---

Target: INPP5F
Assay: pooled miR-30 sensor sort-seq; sequence = guide strand
Conditions: shRNA
measured.metric: sensor-assay potency score (higher = more potent)
Please reply with the number alone, leaving off any unit.

# annotated cases, reported sensor-assay potency score (higher = more potent) shown
TTACTTTATCAACTTCATCATC	-1.34
TTGGGTAATACTAGCAACCTGG	-0.472
TAGACTTAGTCGTTGATACTGG	-0.136
TTCACTTCTGTCCAGCCGCGGT	-1.35
TTCTTTGTATCTGTAGTGCAGT	-0.359
TACCAAGTTAATAATAACCTGT	-0.241
TTAGTGTCTGAACATTCTCAAA	-1.6

Could you now consider this next sequence?
Sure, the documented sensor-assay potency score (higher = more potent) for TTCGTTTATAGCGCATTCCTGC is -0.611

---

Biological target: HINT3
Test: pooled miR-30 sensor sort-seq; sequence = guide strand
Conditions: shRNA
measured.metric: sensor-assay potency score (higher = more potent)
Please reply with the number alone, leaving off any unit.

# annotated cases, reported sensor-assay potency score (higher = more potent) shown
ATTGACTCTATAAACCAACTTG	-0.483
TCTTAGGAAACAGACATTCAGA	-1.03
TATAACTGACTACTTACTGAGA	-0.693

Reading of sensor-assay potency score (higher = more potent) for TTGACTCTATAAACCAACTTGG with HINT3: -0.569

Reading of sensor-assay potency score (higher = more potent) for TTTTCCAACAGTTACCATGTTC with HINT3: -0.723

Reading of sensor-assay potency score (higher = more potent) for TTCTACTTGATCTTTCCTTAGA with HINT3: -0.545

Reading of sensor-assay potency score (higher = more potent) for TATCTTTGAAGCAAATTAGGTC with HINT3: -0.138

Reading of sensor-assay potency score (higher = more potent) for TTTGAAGCAAATTAGGTCCTCA with HINT3: 0.444

Reading of sensor-assay potency score (higher = more potent) for TAACTGACTACTTACTGAGAAA with HINT3: -1.61
